Target: P62 (P62/SQSTM1) (Homo sapiens)
Construct: MBP-P62 (purified recombinant)
Sequence (Q13501 2-440): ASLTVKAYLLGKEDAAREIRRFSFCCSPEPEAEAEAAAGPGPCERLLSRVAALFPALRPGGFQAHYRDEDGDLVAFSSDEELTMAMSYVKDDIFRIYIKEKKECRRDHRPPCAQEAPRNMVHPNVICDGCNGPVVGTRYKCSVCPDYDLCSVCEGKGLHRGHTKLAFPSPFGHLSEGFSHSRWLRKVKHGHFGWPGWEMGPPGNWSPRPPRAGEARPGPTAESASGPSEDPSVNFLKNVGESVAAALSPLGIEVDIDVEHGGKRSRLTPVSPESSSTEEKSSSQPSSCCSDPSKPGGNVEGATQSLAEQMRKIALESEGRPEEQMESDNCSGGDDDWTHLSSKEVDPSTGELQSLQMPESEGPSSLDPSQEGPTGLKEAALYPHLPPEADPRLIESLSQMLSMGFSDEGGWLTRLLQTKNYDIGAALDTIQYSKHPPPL
Assay: microscale thermophoresis (MST) with labelled MBP-P62, MBP as negative control; also induces polymerization of purified P62

[
  {
    "molecule": "O=C(c1ccc(OCCN2CCCCC2)cc1)c1c(O)nc2ccc(O)c3c2c1-c1cccc(O)c1C3=O [HDYL-GQQ-495]",
    "Kd [µM]": 11.2
  }
]
